Target: T1, human Nectin-4 extracellular antigen hNectin-4-His (human, UniProt Q96NY8 32-349)
T1 construct: C-terminal 8xHis tag included
T1 sequence: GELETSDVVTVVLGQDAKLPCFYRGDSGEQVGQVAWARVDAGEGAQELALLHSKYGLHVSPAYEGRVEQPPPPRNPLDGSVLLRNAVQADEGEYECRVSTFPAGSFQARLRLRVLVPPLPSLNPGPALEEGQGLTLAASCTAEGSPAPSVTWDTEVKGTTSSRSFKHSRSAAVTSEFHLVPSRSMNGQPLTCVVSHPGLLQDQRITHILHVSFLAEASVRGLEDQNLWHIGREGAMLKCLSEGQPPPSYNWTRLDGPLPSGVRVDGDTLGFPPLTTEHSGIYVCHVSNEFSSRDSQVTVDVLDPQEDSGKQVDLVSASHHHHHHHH
Assay: SPR, antibody on Protein A chip, 1:1 fit
ATTRIBUTE MEASURED: koff
Put your answer as a value accompanied by its unit after it.

Here are 4 binders together with their reported answers.
BINDER	REPORTED
antibody 1G8-2B3 (antibody, human IgG1, kappa, V domains shown) VH: EVQLVESGGGLVQPGGSLRLSCAASGYNFTTSAMSWVRQAPGKGLEWVSRIYQDSSTTDYADSVKGRFTISRDNSKNTLYLQMNSLRAEDTAVYYCARQTEDRSYGYDLDYWGQGTLVTVSS VL: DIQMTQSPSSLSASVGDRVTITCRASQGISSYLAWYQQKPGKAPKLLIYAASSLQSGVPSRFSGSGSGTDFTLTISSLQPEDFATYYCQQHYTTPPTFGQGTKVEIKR	0.00147 s⁻¹
antibody 1F3-2B9 (antibody, human IgG1, kappa, V domains shown) VH: EVQLVESGGGLVQPGGSLRLSCAASGFNFDSYAMSWVRQAPGKGLEWVSGIKPHTDDIYYADSVKGRFTISRDNSKNTLYLQMNSLRAEDTAVYYCARAELLAFDVYTASDYWGQGTLVTVSS VL: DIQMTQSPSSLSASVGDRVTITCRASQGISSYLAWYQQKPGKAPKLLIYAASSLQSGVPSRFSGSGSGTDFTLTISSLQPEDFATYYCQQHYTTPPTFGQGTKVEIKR	0.00101 s⁻¹
antibody 1F3-1F8 (antibody, human IgG1, kappa, V domains shown) VH: EVQLVESGGGLVQPGGSLRLSCAASGFNFGNYGMSWVRQAPGKGLEWVSRISGDGSNINYADSVKGRFTISRDNSKNTLYLQMNSLRAEDTAVYYCARAELLAFDVYTASDYWGQGTLVTVSS VL: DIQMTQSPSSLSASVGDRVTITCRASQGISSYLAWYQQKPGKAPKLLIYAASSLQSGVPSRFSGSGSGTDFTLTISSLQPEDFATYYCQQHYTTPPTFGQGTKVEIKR	0.000966 s⁻¹
antibody 1F3-1A9 (antibody, human IgG1, kappa, V domains shown) VH: EVQLVESGGGLVQPGGSLRLSCAASGYSFDNYAMSWVRQAPGKGLEWVSRISPTGGYASYADSVKGRFTISRDNSKNTLYLQMNSLRAEDTAVYYCARAELLAFDVYTASDYWGQGTLVTVSS VL: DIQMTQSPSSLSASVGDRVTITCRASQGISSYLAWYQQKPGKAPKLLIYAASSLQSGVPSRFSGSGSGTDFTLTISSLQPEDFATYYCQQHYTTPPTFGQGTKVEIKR	0.000994 s⁻¹

Please examine the following record next.
*Q* Dear colleague, I am looking for the recorded koff of the following binder: antibody 10F4-5 (antibody, human IgG1, kappa, V domains shown) VH: EVQLVESGGGLVQPGGSLRLSCAASGFIFDGYDMSWVRQAPGKGLEWVSVIKDHGGYKFYADSVKGRFTISRDNSKNTLYLQMNSLRAEDTAVYYCAREYSDVVDYVSVRTPLDYWGQGTLVTVSS VL: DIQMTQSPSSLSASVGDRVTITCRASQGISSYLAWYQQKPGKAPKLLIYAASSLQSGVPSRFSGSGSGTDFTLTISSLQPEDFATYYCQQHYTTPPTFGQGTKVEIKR
*A* 0.000137 s⁻¹
